Every entry's value here was drawn from PubChem BioAssay AID1159580.

- measurement-protocol: chemical genetic growth profiling, strain panel (AID 1159580);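 also: tested at 20 µM; growth read once vehicle control cultures reached saturation at 30 °C; 1 = growth at the plate median or of vehicle wells; lower values mean less growth of the strain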
- recorded-conditions: S. cerevisiae deletion strains, growth OD, locus YFL009W, strain cdc4, stronger effect = lower value
The campaign covered roughly 5,500 compounds. About 2,000 (36%) were called active. Roughly 18% stayed inconclusive and do not appear here. Some of the results follow.
Form field: normalized growth (one value per entry).
quantity-name: normalized growth

>>> value_reported("CCOC(=O)CSC(=S)NCc1ccc(C)cc1")
0.944
>>> value_reported("O=C(N/C=C/c1ccsc1)Nc1cc(C(F)(F)F)cc(C(F)(F)F)c1")
0.977
>>> value_reported("Cc1nnsc1C(=O)NNc1ccc(F)cc1F")
0.965
>>> value_reported("O=C(NNc1ccccc1F)c1ccno1")
0.986
>>> value_reported("Cc1ccc(/C=C2\\CSc3ccc(F)cc3C2=O)cc1")
0.904
>>> value_reported("Cc1cc(C(=O)NNc2ccc(F)cc2F)no1")
0.974
>>> value_reported("O=C1C(=O)N(CN2CCc3c([nH]c4ccccc34)C2C(F)(F)F)c2ccc(F)cc21 (stereo not given)")
0.977
>>> value_reported("Cc1cc(Cl)ccc1NNC(=O)c1snnc1C")
0.979
>>> value_reported("Cc1nnsc1C(=O)NNc1c(Cl)cccc1Cl")
0.98
>>> value_reported("COc1ccc(/C=C2\\CSc3ccc(F)cc3C2=O)cc1")
0.934

====

- measurement-protocol: chemical genetic growth profiling, strain panel (AID 1159580)
- recorded-conditions: S. cerevisiae deletion strains, growth OD, locus YER015W, strain faa2, stronger effect = lower value
Screen size: about 5,500 compounds; about 2,000 (36%) were called active. Inconclusive results (about 18%) are left out. Some of the results follow.
Label MET when normalized growth is strictly below 1; otherwise label NOT MET.

>>> assigned_label("CCCCCCNC(=O)n1cc(F)c(=O)[nH]c1=O")
"MET"
>>> assigned_label("CCN(CC)CCCC(C)Nc1ccnc2cc(Cl)ccc12 (stereo unspecified)")
"NOT MET"
>>> assigned_label("CC(=O)OCC[N+](C)(C)C")
"NOT MET"

====

- measurement-protocol: chemical genetic growth profiling, strain panel (AID 1159580);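 also: tested at 20 µM; growth read once vehicle control cultures reached saturation at 30 °C; 1 = growth at the plate median or of vehicle wells; lower values mean less growth of the strain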
- recorded-conditions: S. cerevisiae deletion strains, growth OD, locus YOR083W, strain WHI5, stronger effect = lower value
The campaign covered roughly 5,500 compounds. About 2,000 (36%) were called active. Not shown: some 18% with an inconclusive outcome. This is one part of the list.
quantity-name: normalized growth

>>> value_reported("CN(C)CC/C=C1\\c2ccccc2Sc2ccc(Cl)cc21")
"0.735 (active)"
>>> value_reported("N=c1ccn2c(n1)O[C@@H]1C2O[C@H](CO)[C@H]1O (stereo partly specified)")
"1.03 (inactive)"
>>> value_reported("CC(=O)NC1SCCC1=O (stereo unspecified)")
"1.05 (inactive)"
>>> value_reported("CO[C@H]1[C@H](O)[C@H](O[C@H]2CC[C@]3(C)C4CC[C@]5(C)C(C6=CC(=O)OC6)CC[C@]5(O)C4CC[C@@H]3C2)O[C@@H](C)[C@@H]1O (stereo partly specified)")
"0.955 (inactive)"
>>> value_reported("C=Cc1c2[nH]c(c1C)C=c1[nH]c(c(C)c1C=C)=CC1N=C(C=c3[nH]c(c(C)c3CCC(=O)O)=C2)C(CCC(=O)O)=C1C (stereo unspecified)")
"0.951 (inactive)"
>>> value_reported("COc1ccc2cc([C@H](C)C(=O)O)ccc2c1")
"1.01 (inactive)"
>>> value_reported("COc1ccc2c3c1O[C@H]1C[C@@H](O)C=C[C@@]31CCN(C)C2")
"0.988 (inactive)"
>>> value_reported("NCCSSCCN")
"0.99 (inactive)"
>>> value_reported("CC(C(=O)O)c1ccc(-c2ccccc2)c(F)c1 (stereo unspecified)")
"1.03 (inactive)"
>>> value_reported("Cc1cccc(C)c1OCC(C)N (stereo unspecified)")
"0.993 (inactive)"
>>> value_reported("CC(N)CCCC(C)(C)O (stereo unspecified)")
"0.979 (inactive)"

====

- measurement-protocol: chemical genetic growth profiling, strain panel (AID 1159580);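 also: tested at 20 µM; growth read once vehicle control cultures reached saturation at 30 °C; 1 = growth at the plate median or of vehicle wells; lower values mean less growth of the strain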
- recorded-conditions: S. cerevisiae deletion strains, growth OD, locus YDR069C, strain doa4, stronger effect = lower value
The whole screen tested about 5,500 compounds, of which about 2,000 (36%) were called active. Not shown: some 18% with an inconclusive outcome. Some of the results follow.
Form field: normalized growth (one value per entry).
quantity-name: normalized growth

>>> value_reported("CC(CCc1ccccc1)NC(C)C(O)c1ccc(O)cc1 (stereo unspecified)")
0.977
>>> value_reported("CC1CC2C3CC(F)C4=CC(=O)C=CC4(C)C3(F)C(O)CC2(C)C1(O)C(=O)CO (stereo unspecified)")
1.01
>>> value_reported("COc1ccc2c(c1OC)C(=O)O[C@H]2[C@H]1c2cc3c(cc2CCN1C)OCO3")
1
>>> value_reported("CNC(C)[C@H](O)c1ccccc1 (stereo partly specified)")
1.02
>>> value_reported("CC(=O)O[C@H]1[C@@H]2[C@@H](OC(=O)Cc3ccccc3)[C@@H](C)C[C@]2(OC(C)=O)C(=O)/C(C)=C/[C@H]2[C@H](CC[C@@]13CO3)C2(C)C")
0.98
>>> value_reported("CCOC(=O)C(C)(C)Oc1ccc(Cl)cc1")
0.984
>>> value_reported("CC(N)C(=O)OC(C)(C)Cc1ccc(Cl)cc1 (stereo unspecified)")
1.03
>>> value_reported("Cc1[nH]c(C)c(Cl)c(=O)c1Cl")
1.02
>>> value_reported("COC1=CC(=O)C[C@@H](C)[C@]12Oc1c(Cl)c(OC)cc(OC)c1C2=O")
0.991
>>> value_reported("ClC1=C(Cl)C2(Cl)C3C(Cl)C=CC3C1(Cl)C2(Cl)Cl (stereo unspecified)")
0.981
>>> value_reported("O=C(O)c1cc2ccccc2[nH]1")
1
>>> value_reported("CCOC(=O)CCC(=O)O[C@H]1[C@H](O[C@@H]2[C@@H](C)[C@H](O[C@H]3C[C@@](C)(OC)[C@@H](O)[C@H](C)O3)[C@@H](C)C(=O)O[C@H](CC)[C@@](C)(O)[C@H](O)[C@@H](C)C(=O)[C@H](C)C[C@@]2(C)O)O[C@H](C)C[C@@H]1N(C)C")
0.983
>>> value_reported("C=Cc1c2[nH]c(c1C)C=c1[nH]c(c(C)c1C=C)=CC1N=C(C=c3[nH]c(c(C)c3CCC(=O)O)=C2)C(CCC(=O)O)=C1C (stereo unspecified)")
1.06
>>> value_reported("O=C(O)c1cc2ccccc2c(Cc2c(O)c(C(=O)O)cc3ccccc23)c1O")
0.989
>>> value_reported("C=C(C)C1CNC(C(=O)O)C1CC(=O)O (stereo unspecified)")
0.981
>>> value_reported("CCN(CC)CCCC(C)Nc1c2ccc(Cl)cc2nc2ccc(OC)cc12 (stereo unspecified)")
0.989
>>> value_reported("CCN(CC)CCCC(C)Nc1ccnc2cc(Cl)ccc12 (stereo unspecified)")
0.998
>>> value_reported("O=C(O)c1c2ccccc2cc2ccccc12")
0.991
>>> value_reported("CCN(CCO)CCCC(C)Nc1ccnc2cc(Cl)ccc12 (stereo unspecified)")
1.01
>>> value_reported("NCC1CCC(C(=O)O)CC1 (stereo unspecified)")
0.984
>>> value_reported("CN1CCc2cc3c(cc2[C@H]1C1OC(=O)c2c1ccc1c2OCO1)OCO3 (stereo partly specified)")
0.974

====

- measurement-protocol: chemical genetic growth profiling, strain panel (AID 1159580);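 also: tested at 20 µM; growth read once vehicle control cultures reached saturation at 30 °C; 1 = growth at the plate median or of vehicle wells; lower values mean less growth of the strain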
- recorded-conditions: S. cerevisiae deletion strains, growth OD, locus YAR019C, strain CDC15, stronger effect = lower value
In all, about 5,500 compounds went through this assay and about 2,000 (36%) were called active. Not shown: some 18% with an inconclusive outcome. The list shows a part of the results.
quantity-name: normalized growth

>>> value_reported("Cc1nn(Cc2cccc(C(=O)Nc3ccc(Cl)cc3)c2)c(C)c1Br")
0.99
>>> value_reported("O=S(=O)(Nc1cccc2nsnc12)c1cc(Cl)sc1Cl")
0.948
>>> value_reported("COc1ccc(NNC(=O)c2sc3ccccc3c2Cl)cc1")
0.921
>>> value_reported("O=C(CSc1nnnn1-c1ccccc1)c1ccccc1")
0.96
>>> value_reported("CC(=O)CSc1nnc(-c2ccc(C(C)(C)C)cc2)n1-c1ccc(Cl)cc1")
0.982
>>> value_reported("COc1ccc(CN2CSC(=S)N(Cc3ccc(OC)cc3)C2)cc1")
0.952
>>> value_reported("Cc1ccc(-c2csc(-c3cccnc3)n2)c(C)c1")
0.948
>>> value_reported("Cc1ccc(/C=C2\\CSc3ccc(F)cc3C2=O)cc1")
0.942
>>> value_reported("COc1cc2c(cc1OC)C(C)N(C(=O)c1sc3ccccc3c1Cl)CC2 (stereo not given)")
0.981
>>> value_reported("OC1(C(F)(F)F)CC(C23CC4CC(CC(C4)C2)C3)=NN1 (stereo not given)")
0.867
